Consider the following pIC50 values measured on MERS-CoV 3CLpro (Middle East respiratory syndrome-related coronavirus, UniProt K9N638).
Sequence (K9N638 3248-3553 limits assumed): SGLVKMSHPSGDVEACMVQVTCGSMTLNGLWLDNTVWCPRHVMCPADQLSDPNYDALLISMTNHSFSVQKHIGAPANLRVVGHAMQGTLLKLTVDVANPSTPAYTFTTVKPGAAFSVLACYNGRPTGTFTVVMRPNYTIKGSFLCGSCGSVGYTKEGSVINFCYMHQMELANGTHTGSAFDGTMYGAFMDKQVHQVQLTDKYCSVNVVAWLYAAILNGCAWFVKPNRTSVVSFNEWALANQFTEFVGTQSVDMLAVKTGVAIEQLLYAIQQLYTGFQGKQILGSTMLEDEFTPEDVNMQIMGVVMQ
pIC50: −log10 of the molar value.

| MOLECULE | pIC50 |
| --- | --- |
| CC(C)(C)OC(=O)N[C@H]1CC/C=C/[C@H]2CNC(=O)[C@H]2C[C@@H](C#N)NC(=O)[C@@H]2[C@H]3CCC[C@H]3CN2C1=O | 6.00 to 7.00 |
| CC(C)C[C@@H]1NC(=O)CCCCCC[C@H]2CNC(=O)[C@H]2C[C@@H](C=O)NC1=O | 4.70 to 6.00 |
| CC(C)(C)OC(=O)N[C@H]1CC/C=C\[C@H]2CCNC(=O)[C@H]2CC(C#N)NC(=O)[C@@H]2[C@H]3CCC[C@H]3CN2C1=O (stereo partly shown) | 6.00 to 7.00 |
| CC(C)C[C@@H]1NC(=O)[C@@H](Cc2ccccc2)CCCCC[C@@H]2CNC(=O)[C@@H]2C[C@@H](C#N)NC1=O | < 4.70 |
